B1: PTPRD (parent)
chain: LTKLREMGREKCHQYWPAERSARY

- Variants of: B1
- Experimental details: protein stability index of a GFP-peptide fusion (GPS, HEK-293T) (PSI 1-6); higher = more stable;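 note: lentivirally expressed fusions sorted by FACS into six bins by GFP to DsRed ratio, PSI derived from sequencing read proportions per bin multiplied by bin number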
- Conditions used: c terminus: a fixed tail appended
Readout label: protein stability index
Keep the answer to the number alone.

Query string: Field request: protein stability index | item: LTKLREMGREKCHQMWPAERSARY [Y15M]
Result string: 2.53

Query string: Field request: protein stability index | item: LTKLRSMGREKCHQYWPAERSARY [E6S]
Result string: 1.98

Query string: Field request: protein stability index | item: LTKWREMGREKCHQYWPAERSARY [L4W]
Result string: 2.12

Query string: Field request: protein stability index | item: LTKLREMGRESCHQYWPAERSARY [K11S]
Result string: 2.4

Query string: Field request: protein stability index | item: LTKLRLMGREKCHQYWPAERSARY [E6L]
Result string: 2.13

Query string: Field request: protein stability index | item: LTKLREMGREKCHQYDPAERSARY [W16D]
Result string: 3.8

Query string: Field request: protein stability index | item: LTKLREMGREKCHQYWPAARSARY [E19A]
Result string: 2.31

Query string: Field request: protein stability index | item: LRKLREMGREKCHQYWPAERSARY [T2R]
Result string: 2.3

Query string: Field request: protein stability index | item: LTKLREMGREKCHQYWPAERGARY [S21G]
Result string: 1.91

Query string: Field request: protein stability index | item: LTKLREMGREKCHQYWRAERSARY [P17R]
Result string: 2.37

Query string: Field request: protein stability index | item: LTKLREMGNEKCHQYWPAERSARY [R9N]
Result string: 2.68

Query string: Field request: protein stability index | item: LTKLREMGREKCHQYWDAERSARY [P17D]
Result string: 2.79
